Measured target: BTK (human)
Protocol: KINOMEscan competition binding
Experimental context: compound 10.0 µM
Reported kinase still bound, per cent of control values are given for each entry in this list.

Compound | Unit of measure | kinase still bound, per cent of control
Cc1ccc(C(=O)Nc2cccc(C(F)(F)F)c2)cc1Nc1cncc(C(N)=O)c1 | % | 100
COc1cc(C(=O)NC2CCN(C)CC2)ccc1Nc1ncc2c(n1)N(C1CCCC1)C(C)CC(=O)N2C (centres undefined) | % | 100
Nc1ccc(-c2ccc3ncc4ccc(=O)n(-c5cccc(C(F)(F)F)c5)c4c3c2)cn1 | % | 100
OCCCNc1cc(-c2ccnc(Nc3cccc(Cl)c3)n2)ccn1 | % | 100
COc1cc(C(=O)NC2CCN(C)CC2)ccc1Nc1ncc2c(n1)N(C1CCCC1)CCC(=O)N2C(C)C | % | 100
C=CC(=O)Nc1cc(NC(=O)c2ccc(C)c(NC(=O)c3ccno3)c2)cc(C(F)(F)F)c1 | % | 100
O=C1Nc2ccc(I)cc2/C1=C/c1cc(Br)c(O)c(Br)c1 | % | 99
C=CC(=O)Nc1cccc(Oc2nc(Nc3ccc(N4CCN(C)CC4)cc3OC)ncc2Cl)c1 | % | 0.1
COc1cc(N2CCN(C)CC2)ccc1Nc1nc(N)c(C(=O)c2c(Cl)cccc2Cl)s1 | % | 100
C=CC(=O)Nc1cccc(Nc2nc(N[C@H]3CC[C@H](N(C)C)CC3)nc3c2ncn3C(C)C)c1 | % | 35
CCN1CCN(Cc2ccc(Nc3ncc4c(n3)N(C)c3ccccc3C(=O)N4C)cc2C(F)(F)F)CC1 | % | 67
CN(C)C/C=C/C(=O)Nc1cccc(Nc2ncc3c(n2)N(C)c2ccccc2C(=O)N3C)c1 | % | 42
Cc1ccc(NC(=O)c2cccc(C(C)(C)C#N)c2)cc1Nc1ccc2ncn(C)c(=O)c2c1 | % | 66
O=C(O)c1ccc(Nc2ncc3c(n2)-c2ccc(Cl)cc2C(c2c(F)cccc2F)=NC3)cc1 | % | 28
O=C(NOC[C@H](O)CO)c1ccc(F)c(F)c1Nc1ccc(I)cc1F | % | 87
O=C(NC1CC1)c1cccc(-c2ccc3c(NC(=O)C4CC4)n[nH]c3c2)c1 | % | 100
C[C@@H](Oc1cc(-n2cnc3ccc(CN4CCN(C)CC4)cc32)sc1C(N)=O)c1ccccc1C(F)(F)F | % | 100
N#Cc1c(NC(=O)c2cccc3ccccc23)sc2c1CCCC2 | % | 90
Cc1ccc2nc(NCCN)c3ncc(C)n3c2c1 | % | 100
